Each recorded value in this set is attributed to patent US20240327505A1.

- study system: SARS-CoV-2 "Beta" SA B.1.351 full-length Spike protein on pseudovirus (SARS-CoV-2, UniProt P0DTC2 14-1273)
- assay info: cell-based or functional assay
readout kind: Pseudovirus Neturalization

(Q) // fetch Pseudovirus Neturalization given entry AB-009346 (antibody, V domains shown) VH: EVQLVESGGGVVRPGGSLRLSCAASGFTFDDYGMSWVRQAPGKGLEWVSGINWNGGSTGYADSVKGRFTISRDNAKNSLYLQMNSLRAEDTALYYCARWPLLGISGYYHYYMDVWGKGTTVTVSS VL: QSALTQPRSVSGSPGQSVTISCTGTSSDVGGYNYVSWYQQHPGKAPKLMIYDVSKRPSGVPDRFSGSKSGNTASLTISGLQAEDEADYYCCSYAGSYTLLFGGGTKLIVL
(A) > 50 µg/mL

(Q) Report Pseudovirus Neturalization for AB-009769 (antibody, V domains shown) VH: EVQLVESGGGLVQPGGSLRLSCAASGFTFSSYWMSWVRQAPGKGLEWVANIKQDGSEKYYVDSVKGRFTISRDNAKNSLYLQMNSLRAEDTAVYYCARSPEVLWFGDPVLDNWFDPWGQGTLVTVSS VL: SYELTQPPSVSVSPGQTARITCSGDALPKQYAYWYQQKPGQAPVLVIYKDSERPSGIPERFSGSSSGTTVTLTISGVQAEDEADYYCQSADSSGTYPVVFGGGTKLTVL
(A) > 50 µg/mL
